assayed.target: CK2 holoenzyme (Homo sapiens (Human))
test.details: capillary electrophoretic CK2 inhibition/activity test (E-peptide substrate)
measurement.parameters: Y-axis intersection of IC50 vs ATP concentration (8 ATP concentrations); read-out: inhibition constant Ki
measured.metric: Ki (nM)
The figure you give is taken to be in nM; do not add the unit.

Input line: Report Ki for Cc1ccc(N/C=C2\C(=O)CCc3c2oc2c(Cl)c(Cl)c(O)cc32)cc1 [TF] please.
Output line: 14.7

###

Hi there, I'd appreciate the recorded pIC50 for every entry that follows.
assayed.target: CK2 holoenzyme (Homo sapiens (Human), UniProt P68400)
Sequence (P68400 whole entry): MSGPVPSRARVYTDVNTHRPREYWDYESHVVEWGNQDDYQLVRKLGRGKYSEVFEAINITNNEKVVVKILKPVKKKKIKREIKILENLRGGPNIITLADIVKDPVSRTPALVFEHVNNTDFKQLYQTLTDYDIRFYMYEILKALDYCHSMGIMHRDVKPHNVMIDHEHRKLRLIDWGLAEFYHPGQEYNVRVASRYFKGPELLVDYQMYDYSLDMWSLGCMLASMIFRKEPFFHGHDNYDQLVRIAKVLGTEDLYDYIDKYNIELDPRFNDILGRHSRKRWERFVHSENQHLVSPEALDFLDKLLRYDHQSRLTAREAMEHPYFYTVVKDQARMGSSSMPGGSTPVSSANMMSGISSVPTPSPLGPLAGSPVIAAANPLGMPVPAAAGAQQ
Sequence (P67870 whole entry partner): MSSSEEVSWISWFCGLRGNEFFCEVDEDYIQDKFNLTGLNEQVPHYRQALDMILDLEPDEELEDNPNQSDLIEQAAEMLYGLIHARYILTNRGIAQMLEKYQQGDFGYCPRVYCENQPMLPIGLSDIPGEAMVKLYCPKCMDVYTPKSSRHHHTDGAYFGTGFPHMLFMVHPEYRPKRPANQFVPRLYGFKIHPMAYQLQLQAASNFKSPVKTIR
test.details: capillary electrophoretic CK2 inhibition/activity test (E-peptide substrate)
measurement.parameters: capillary electrophoretic test, ten minutes pre-incubation
Reminder that pIC50 is minus the log10 of a molar concentration.

Input line: pIC50 of CC(=O)Oc1c(Cl)c(Cl)c2oc(C(=O)C=C(C)C)c(N)c2c1C#N on CK2 holoenzyme (Homo sapiens (Human), UniProt P68400)?
Output line: 6.70

Input line: Request body: readout pIC50, system CK2 holoenzyme (Homo sapiens (Human), UniProt P68400), query Cc1ccc(N/C=C2\C(=O)CCc3c2oc2c(Cl)c(Cl)c(O)cc32)cc1 . Return the value.
Output line: 7.52

Input line: Form: Entry = CCOC(=O)c1oc2c(Cl)c(Cl)c(OC(C)=O)c(C#N)c2c1N | System = CK2 holoenzyme (Homo sapiens (Human), UniProt P68400) | pIC50 = ____
Output line: 5.62

Cited source for all entries: patent US9303005B2
